# System: blackgrass
# TEST_PROTOCOL: Test B pre/postemergence blackgrass
# Format: in vivo, Alopecurus myosuroides
# CONDITION_DETAILS: Postemergence, Rate 125 g/ha; scale of 0 to 10 where 0 is no effect and 10 is complete control
QUANTITY_KIND: Blackgrass plant response rating

In [3]: df
Out[3]:
                                    compound  system_under_test                     quantity_kind  reported_result
 0  CC(C)N(C(=O)n1oc(=O)n(Cc2nnc(Cl)s2)c1=O)c1ccc(Cl)cc1         blackgrass  Blackgrass plant response rating                0
 1  CC(C)N(C(=O)n1oc(=O)n(C(C)(C)C)c1=O)c1ccccc1         blackgrass  Blackgrass plant response rating                0
 2  CC(C)N(C(=O)n1oc(=O)n(C(C)c2ccccc2)c1=O)c1ccc(Cl)cc1 (centres unmarked)         blackgrass  Blackgrass plant response rating                2
 3  CC(C)N(C(=O)n1oc(=O)n(CCCC#N)c1=O)c1ccc(F)cc1F         blackgrass  Blackgrass plant response rating                5
 4  COc1ccc(N(C(=O)n2oc(=O)n(C(C)C)c2=O)C(C)C)cc1         blackgrass  Blackgrass plant response rating                2
 5  Cc1ccc(N(C(=O)n2oc(=O)n(C(C)C)c2=O)C(C)C)cc1         blackgrass  Blackgrass plant response rating                2
 6  COC1CCC(Cn2c(=O)on(C(=O)N(c3ccc(F)cc3)C(C)C)c2=O)=NO1 (centres unmarked)         blackgrass  Blackgrass plant response rating                5
 7  CC(C)N(C(=O)n1oc(=O)n(CCN(C)C(=O)c2ccccc2)c1=O)c1ccccc1         blackgrass  Blackgrass plant response rating                0
 8  C=C(Cn1c(=O)on(C(=O)N(c2ccccc2)C(C)C)c1=O)C(C)C         blackgrass  Blackgrass plant response rating                0
 9  CC(C)N(C(=O)n1oc(=O)n(CCCCCl)c1=O)c1ccc(F)cc1         blackgrass  Blackgrass plant response rating                0
10  CC(C)N(C(=O)n1oc(=O)n(C(C)C2=NOCC2)c1=O)c1ccc(Cl)cc1 (racemic)         blackgrass  Blackgrass plant response rating                5

====

Blackgrass plant response rating listing for selected molecules.
# Test system: blackgrass
# TEST_PROTOCOL: Test B pre/postemergence blackgrass
# Format: in vivo, Alopecurus myosuroides
# CONDITION_DETAILS: Rate 62 g/ha, Postemergence; scale of 0 to 10 where 0 is no effect and 10 is complete control
QUANTITY_KIND: Blackgrass plant response rating

                                   molecule  system_under_test                     quantity_kind  reported_result
0  Cc1nc(Cl)sc1C(C)n1c(=O)on(C(=O)N(c2ccc(F)cc2F)C(C)C)c1=O (stereo not drawn)         blackgrass  Blackgrass plant response rating                0
1  CC(C)N(C(=O)n1oc(=O)n(CCC(F)(F)F)c1=O)c1ccc(F)cc1         blackgrass  Blackgrass plant response rating                6
2  C=C[Si](C)(C)Cn1c(=O)on(C(=O)N(c2ccc(Cl)cc2)C(C)C)c1=O         blackgrass  Blackgrass plant response rating                2
3  Cc1nc(Cl)sc1C(C)n1c(=O)on(C(=O)N(c2ccc(F)cc2)C(C)C)c1=O (stereo not drawn)         blackgrass  Blackgrass plant response rating                0
4  Cc1onc(-c2ccccc2)c1-n1c(=O)on(C(=O)N(c2ccc(F)cc2)C(C)C)c1=O         blackgrass  Blackgrass plant response rating                0
5  CC(C)N(C(=O)n1oc(=O)n(C)c1=O)c1ccc(Cl)cc1         blackgrass  Blackgrass plant response rating                5

// data source = patent US6737383B1
